system: Enterococcus faecium; experiment: In vitro minimum inhibitory concentration against vancomycin-susceptible Enterococcus faecium (GC 4556); assay type: functional
Quantity kind: MIC (µg/mL)

1) C[C@@H](c1ccccc1)[C@@H]1NC(=O)CNC(=O)[C@H](CO)NC(=O)[C@@H]([C@@H](O)[C@@H]2CN=C(N)N2[C@H]2O[C@H](CO)[C@@H](O)[C@H](O)[C@@H]2O)NC(=O)[C@H]([C@H](O)[C@@H]2CN=C(N)N2)NC(=O)[C@@H](Cc2ccc3nc(-c4cccc(F)c4)oc3c2)NC1=O; 64
2) CCN1CCN(C(=O)N[C@@H](C(=O)N[C@@H]2C(=O)N3[C@@H]2SC(C)(C)[C@@H]3C(=O)O)c2ccccc2)C(=O)C1=O; 1
3) Cc1ccc(Oc2ccc(-c3nc4ccc(C[C@H]5NC(=O)[C@H]([C@@H](C)c6ccccc6)NC(=O)CNC(=O)[C@H](CO)NC(=O)[C@@H]([C@@H](O)[C@@H]6CN=C(N)N6[C@H]6O[C@H](CO)[C@@H](O)[C@H](O)[C@@H]6O)NC(=O)[C@H]([C@H](O)[C@@H]6CN=C(N)N6)NC5=O)cc4o3)cc2)cc1; 8
4) C[C@@H](c1ccccc1)[C@@H]1NC(=O)CNC(=O)[C@H](CO)NC(=O)[C@@H]([C@@H](O)[C@@H]2CN=C(N)N2[C@H]2O[C@H](CO)[C@@H](O)[C@H](O)[C@@H]2O)NC(=O)[C@H]([C@H](O)[C@@H]2CN=C(N)N2)NC(=O)[C@@H](Cc2ccc3nc(SCC(=O)c4ccc(Cl)cc4)oc3c2)NC1=O; 8

====

tested on: Bacillus cereus; assay: In vitro minimum inhibitory concentration against Bacillus cereus (GC 4561) assay organism; assay type: functional
Quantity kind: MIC (µg/mL)

1. C[C@@H](c1ccccc1)[C@@H]1NC(=O)CNC(=O)[C@H](CO)NC(=O)[C@@H]([C@@H](O)[C@@H]2CN=C(N)N2[C@H]2O[C@H](CO)[C@@H](O)[C@H](O)[C@@H]2O)NC(=O)[C@H]([C@H](O)[C@@H]2CN=C(N)N2)NC(=O)[C@@H](Cc2ccc3nc(SCC(=O)c4ccc(Cl)cc4)oc3c2)NC1=O; 1
2. C[C@@H](c1ccccc1)[C@@H]1NC(=O)CNC(=O)[C@H](CO)NC(=O)[C@@H]([C@@H](O)[C@@H]2CN=C(N)N2[C@H]2O[C@H](CO)[C@@H](O)[C@H](O)[C@@H]2O)NC(=O)[C@H]([C@H](O)[C@@H]2CN=C(N)N2)NC(=O)[C@@H](Cc2ccc3nc(-c4ccc(N(C)C)cc4)oc3c2)NC1=O; 32
3. C[C@@H](c1ccccc1)[C@@H]1NC(=O)CNC(=O)[C@H](CO)NC(=O)[C@@H]([C@@H](O)[C@@H]2CN=C(N)N2[C@H]2O[C@H](CO)[C@@H](O)[C@H](O)[C@@H]2O)NC(=O)[C@H]([C@H](O)[C@@H]2CN=C(N)N2)NC(=O)[C@@H](Cc2ccc3nc(-c4cccc(F)c4)oc3c2)NC1=O; 64

====

system: Streptococcus pneumoniae; test: In vitro minimum inhibitory concentration against Penicillin resistant Streptococcus pneumoniae (GC 1894); type: functional
Listed compounds paired with reported MIC
Quantity kind: MIC (µg/mL)

1. Cc1ccc(Oc2ccc(-c3nc4ccc(C[C@H]5NC(=O)[C@H]([C@@H](C)c6ccccc6)NC(=O)CNC(=O)[C@H](CO)NC(=O)[C@@H]([C@@H](O)[C@@H]6CN=C(N)N6[C@H]6O[C@H](CO)[C@@H](O)[C@H](O)[C@@H]6O)NC(=O)[C@H]([C@H](O)[C@@H]6CN=C(N)N6)NC5=O)cc4o3)cc2)cc1; 4
2. C[C@@H](c1ccccc1)[C@@H]1NC(=O)CNC(=O)[C@H](CO)NC(=O)[C@@H]([C@@H](O)[C@@H]2CN=C(N)N2[C@H]2O[C@H](CO)[C@@H](O)[C@H](O)[C@@H]2O)NC(=O)[C@H]([C@H](O)[C@@H]2CN=C(N)N2)NC(=O)[C@@H](Cc2ccc3nc(-c4ccc(N(C)C)cc4)oc3c2)NC1=O; 32
3. C[C@@H](c1ccccc1)[C@@H]1NC(=O)CNC(=O)[C@H](CO)NC(=O)[C@@H]([C@@H](O)[C@@H]2CN=C(N)N2[C@H]2O[C@H](CO)[C@@H](O)[C@H](O)[C@@H]2O)NC(=O)[C@H]([C@H](O)[C@@H]2CN=C(N)N2)NC(=O)[C@@H](Cc2ccc3nc(-c4cccc(F)c4)oc3c2)NC1=O; 16

====

The compounds listed here are annotated with their MIC.
tested on: Streptococcus; assay: In vitro minimum inhibitory concentration against Streptococcus Species (5 strains, including PRSP); type: functional
Quantity kind: MIC (µg/mL)

1. C[C@@H](c1ccccc1)[C@@H]1NC(=O)CNC(=O)[C@H](CO)NC(=O)[C@@H]([C@@H](O)[C@@H]2CN=C(N)N2[C@H]2O[C@H](CO)[C@@H](O)[C@H](O)[C@@H]2O)NC(=O)[C@H]([C@H](O)[C@@H]2CN=C(N)N2)NC(=O)[C@@H](Cc2ccc3nc(SCc4ccc(-c5ccccc5)cc4)oc3c2)NC1=O; 2
2. C[C@@H](c1ccccc1)[C@@H]1NC(=O)CNC(=O)[C@H](CO)NC(=O)[C@@H]([C@@H](O)[C@@H]2CN=C(N)N2[C@H]2O[C@H](CO)[C@@H](O)[C@H](O)[C@@H]2O)NC(=O)[C@H]([C@H](O)[C@@H]2CN=C(N)N2)NC(=O)[C@@H](Cc2ccc3nc(-c4cccc(F)c4)oc3c2)NC1=O; 4
3. C[C@@H](c1ccccc1)[C@@H]1NC(=O)CNC(=O)[C@H](CO)NC(=O)[C@@H]([C@@H](O)[C@@H]2CN=C(N)N2[C@H]2O[C@H](CO)[C@@H](O)[C@H](O)[C@@H]2O)NC(=O)[C@H]([C@H](O)[C@@H]2CN=C(N)N2)NC(=O)[C@@H](Cc2ccc3nc(-c4ccc(-c5ccccc5)cc4)oc3c2)NC1=O; 16

====

test system: Streptococcus pneumoniae; experiment: In vitro minimum inhibitory concentration against Penicillin resistant Streptococcus pneumoniae (GC 1894); type: functional
Quantity kind: MIC (µg/mL)

1. C[C@@H](c1ccccc1)[C@@H]1NC(=O)CNC(=O)[C@H](CO)NC(=O)[C@@H]([C@@H](O)[C@@H]2CN=C(N)N2[C@H]2O[C@H](CO)[C@@H](O)[C@H](O)[C@@H]2O)NC(=O)[C@H]([C@H](O)[C@@H]2CN=C(N)N2)NC(=O)[C@@H](Cc2ccc3nc(SCC(=O)c4ccc(Cl)cc4)oc3c2)NC1=O; 8
2. CCN1CCN(C(=O)N[C@@H](C(=O)N[C@@H]2C(=O)N3[C@@H]2SC(C)(C)[C@@H]3C(=O)O)c2ccccc2)C(=O)C1=O [PIPERACILLIN]; 2

====

system: Streptococcus; assay: In vitro minimum inhibitory concentration against Streptococcus Species (5 strains, including PRSP); format: functional
Quantity kind: MIC (µg/mL)

1. C[C@@H](c1ccccc1)[C@@H]1NC(=O)CNC(=O)[C@H](CO)NC(=O)[C@@H]([C@@H](O)[C@@H]2CN=C(N)N2[C@H]2O[C@H](CO)[C@@H](O)[C@H](O)[C@@H]2O)NC(=O)[C@H]([C@H](O)[C@@H]2CN=C(N)N2)NC(=O)[C@@H](Cc2ccc3nc(-c4ccco4)oc3c2)NC1=O; 32
2. C[C@@H](c1ccccc1)[C@@H]1NC(=O)CNC(=O)[C@H](CO)NC(=O)[C@@H]([C@@H](O)[C@@H]2CN=C(N)N2[C@H]2O[C@H](CO)[C@@H](O)[C@H](O)[C@@H]2O)NC(=O)[C@H]([C@H](O)[C@@H]2CN=C(N)N2)NC(=O)[C@@H](Cc2ccc3nc(-c4ccccc4OC4O[C@H](CO)[C@@H](O)[C@H](O)[C@H]4O)oc3c2)NC1=O (some centres not stated); 128

====

tested on: Streptococcus; assay: In vitro minimum inhibitory concentration against Streptococcus Species (5 strains, including PRSP); assay type: functional
Quantity kind: MIC (µg/mL)

1. C[C@@H](c1ccccc1)[C@@H]1NC(=O)CNC(=O)[C@H](CO)NC(=O)[C@@H]([C@@H](O)[C@@H]2CN=C(N)N2[C@H]2O[C@H](CO)[C@@H](O)[C@H](O)[C@@H]2O)NC(=O)[C@H]([C@H](O)[C@@H]2CN=C(N)N2)NC(=O)[C@@H](Cc2ccc3nc(SCC(=O)c4ccc(Cl)cc4)oc3c2)NC1=O; 2
2. C[C@@H](c1ccccc1)[C@@H]1NC(=O)CNC(=O)[C@H](CO)NC(=O)[C@@H]([C@@H](O)[C@@H]2CN=C(N)N2[C@H]2O[C@H](CO)[C@@H](O)[C@H](O)[C@@H]2O)NC(=O)[C@H]([C@H](O)[C@@H]2CN=C(N)N2)NC(=O)[C@@H](Cc2ccc3nc(NC4O[C@@H](OC(=O)c5ccccc5)[C@H](OC(=O)c5ccccc5)[C@@H](OC(=O)c5ccccc5)[C@@H]4COC(=O)c4ccccc4)oc3c2)NC1=O (stereo partly drawn); 4
3. C[C@@H](c1ccccc1)[C@@H]1NC(=O)CNC(=O)[C@H](CO)NC(=O)[C@@H]([C@@H](O)[C@@H]2CN=C(N)N2[C@H]2O[C@H](CO)[C@@H](O)[C@H](O)[C@@H]2O)NC(=O)[C@H]([C@H](O)[C@@H]2CN=C(N)N2)NC(=O)[C@@H](Cc2ccc3nc(-c4ccc(C(C)(C)C)cc4)oc3c2)NC1=O; 8
